Provenance of the data: patent US20010041688A1

tested on: carotid artery; assay: Contractile tension in isolated carotid artery (isometric myograph); details: isolated rat carotid artery; read-out: Contractile response EC50
assayReadout: EC50 (µM)
Lab book: enter the figure in µM, no units written.

What EC50 value was documented for this compound, NCCc1c[nH]c2ccc(O)cc12 [5-HT, 5-hydroxytryptamine] ?
3.18
